From: patent US20130309252A1

- Target system: T1, Grasp55 FL, yeast two-hybrid construct (murine, UniProt Q99JX3 1-451)
- T1 construct: Gal4 fusion expressed in yeast AH109; also called wt Grasp55
- Protocol description: yeast two-hybrid, growth on selective medium
Result type: binding result

Binder	Result
ICCAYRRGCFISSKQDGESYKSPGKHDGVNYIRTSEEGDFRHKSS (other, End at 307 worked out from 'deletion of the last three amino-acids' of 263-310; not shown: Gal4 domain of the two-hybrid vector) [JAM-C ΔPDZbm, yeast two-hybrid construct lacking the last three amino-acids]	no binding
AYSRGYFETTKKGTAPGKKVIYSQPSTRSEGEFKQTS (other, End at 296 worked out from 'deletion of the last three amino-acids' of 260-299; not shown: Gal4 domain of the two-hybrid vector) [JAM-A ΔPDZbm, yeast two-hybrid construct lacking the last three amino-acids]	no binding
TCYAQRKGYFSKETSFQKGSPASKVTTMSENDFKHTKSFII (other, not shown: Gal4 domain of the two-hybrid vector) [JAM-B cytoplasmic C-terminal construct, yeast two-hybrid]	binds
ICCAYRRGCFISSKQDGESYKSPGKHDGVNYIRTSEEGDFRHKSSFVI (other, also called JAM-C C-terminal region; not shown: Gal4 domain of the two-hybrid vector) [JAM-C cytoplasmic C-terminal construct, yeast two-hybrid]	binds
TCYAQRKGYFSKETSFQKGSPASKVTTMSENDFKHTKS (other, End at 295 worked out from 'deletion of the last three amino-acids' of 258-298; not shown: Gal4 domain of the two-hybrid vector) [JAM-B ΔPDZbm, yeast two-hybrid construct lacking the last three amino-acids]	no binding
